// data source = the supplement of paper PMC13380429

test system: Caco-2; experiment: cell viability relative to DMSO; higher = less toxic; conditions: 72 h; 10000 nM
readoutKind: cell viability (%)
Answers are plain numbers, in %.

Look over these answered cases.
molecule	recordedResult
Cc1cc(C)c(N)c(C#Cc2cccc(F)c2)n1	71.6
CC(C)Cn1cnc2c(N)nc3ccccc3c21	100
COc1ccc(NS(=O)(=O)c2ccc(/N=N/c3ccc(O)c(C(=O)O)c3)cc2)nn1	93.7
Cc1ccccc1C(=O)Nc1ccc(C(=O)N2CCCC(N(C)C)c3ccccc32)cc1 (centres undefined)	70.2
COc1ccc(/C=C\c2cc(OC)c(OC)c(OC)c2)cc1OP(=O)(O)O	45.4
Cc1nc(Nc2ncc(C(=O)Nc3c(C)cccc3Cl)s2)cc(N2CCN(CCO)CC2)n1	33.2
Cc1nnc2n1-c1sc(CCC(=O)N3CCOCC3)cc1C(c1ccccc1Cl)=NC2	94
C/C(=C\CNc1ncnc2[nH]cnc12)CO	101

Please turn your attention to the following entry.
// query Name the recorded cell viability of the item "C[C@H](N)Cn1ccc2cc(F)c(Cl)cc21" in your answer.
// result 85.2

* * *

test system: Caco-2; experiment: cell viability relative to DMSO; higher = less toxic; details: 72 h; 10 nM
readoutKind: cell viability (%)
Give bare numbers, in %.

Look over these answered cases.
molecule	cell viability, %
CSCC[C@H](NC(=O)[C@H](Cc1ccccc1)NC(=O)CNC(=O)CNC(=O)[C@@H](N)Cc1ccc(O)cc1)C(=O)O	94.9
Cc1ccccc1C(=O)Nc1ccc(C(=O)N2CCCC(N(C)C)c3ccccc32)cc1 (configuration not stated)	99.8
C[C@]12C=CC(=O)N[C@@H]1CC[C@@H]1[C@@H]2CC[C@]2(C)[C@@H](C(=O)Nc3cc(C(F)(F)F)ccc3C(F)(F)F)CC[C@@H]12 [dutasteride]	93

For each entry beneath this line, provide reported cell viability.
1. COc1ccc(NS(=O)(=O)c2ccc(/N=N/c3ccc(O)c(C(=O)O)c3)cc2)nn1
2. CCCCC/C=C\C/C=C\CCCCCCCC(=O)NCCCC(=O)O [GABA-linoleamide]

// result
1. 89.4
2. 110

For each entry beneath this line, provide reported cell viability.
1. CC(C)(COP(=O)(O)OP(=O)(O)OC[C@H]1O[C@@H](n2cnc3c(N)ncnc32)[C@H](O)[C@@H]1OP(=O)(O)O)[C@@H](O)C(=O)NCCC(=O)NCCS
2. CN1CCC2=C(C1)C(c1ccccc1)c1ccccc12 (configuration not stated)

// result
1. 100
2. 95.1

* * *

test system: HepG2; assay: cell viability relative to DMSO; higher = less toxic; details: 72 h; 1000 nM
Hi there, I'd appreciate the recorded cell viability for every entry that follows.
One number for each entry, in %.

Look over these answered cases.
compound	cell viability (%)
COc1ccccc1S(=O)(=O)Nc1ccc2c(c1)CN(C)C(=O)N2	94.4
CCOC(=S)SSC(=S)OCC	95.1
OCc1c[nH]c2ccccc12	88.1

For each entry beneath this line, provide reported cell viability.
1. COc1ccc(CCO[C@@H]2CCCC[C@H]2N2CC[C@@H](O)C2)cc1OC
2. CNC(=O)[C@H]1O[C@@H](n2cnc3c(NCc4cccc(I)c4)ncnc32)[C@H](O)[C@@H]1O
3. COc1ccc(C(=O)Nc2c(Cl)cncc2Cl)cc1OC1CCCC1
4. COC(=O)C1=C(C)NC(C)=C(C(=O)OCCSc2ccccc2)[C@@H]1C
5. O=C(N/N=C/c1ccccc1O)c1ccccc1O
6. Cc1ccccc1C(=O)Nc1ccc(C(=O)N2CCCC(N(C)C)c3ccccc32)cc1 (stereo not drawn)

// result
1: 100; 2: 68.8; 3: 102; 4: 94.6; 5: 86.6; 6: 99.5

For each entry beneath this line, provide reported cell viability.
1. O=C(CO)[C@@H](O)[C@@H](O)[C@H](O)CO
2. CC(=O)c1ccc(NS(C)(=O)=O)c(Oc2ccc(F)cc2F)c1
3. O=C(NC1CCNCC1)c1n[nH]cc1NC(=O)c1c(Cl)cccc1Cl
4. CC1(c2ccccc2)OC(C(=O)O)=CC1=O (stereo not drawn)
5. CC(C)(O)CC(=O)NCCn1ccc2ncnc(Nc3ccc(Oc4cccc(C(F)(F)F)c4)c(Cl)c3)c21
6. Cc1ccc(-c2ccc(C)cn2)nc1
7. COc1cc(C=O)ccc1O

// result
94.9
99.5
22.5
108
105
103
115

For each entry beneath this line, provide reported cell viability.
1. O=C1CN2Cc3c(ccc(Cl)c3Cl)N=C2N1 [anagrelide]
2. CCS(=O)(=O)N(C)[C@H]1c2cc(C#N)ccc2OC(C)(C)[C@@H]1O [chromanol-293B-(-)-[3R,4S]]
3. CC(C)(N)c1nc(-c2ccc(OC(F)(F)F)cc2)c[nH]1
4. COc1cc(C(=O)N(CC[C@H]2CCCN2C)C/C(C)=C/c2ccccc2F)cc(OC)c1OC (racemic)
5. CC(C)=CCC/C(C)=C/CC/C(C)=C/CCC(=O)OC/C=C(\C)CCC=C(C)C [geranyl-farnesylacetate]
6. O=C(Nc1ccc(O)cc1)c1ccccc1O
7. CNC(=O)c1ccc2cc([C@@]3(O)CCn4cncc43)ccc2c1

// result
1. 101
2. 103
3. 117
4. 104
5. 112
6. 105
7. 104

* * *

Hi there, I'd appreciate the recorded cell viability for every entry that follows.
system: Caco-2; assay: cell viability relative to DMSO; higher = less toxic; settings: 72 h; 1 nM
Give bare numbers, in %.

Look over these answered cases.
compound	cell viability [%]
CN(C)CCOC(=O)COc1ccc(Cl)cc1 [meclofenoxate]	94.5
CC(C)n1cnc2c(NCCc3ccc(O)cc3)nc(-c3csc4ccccc34)nc21	92.3
CC(C)NCC(O)COc1cccc2ccccc12 (configuration not stated)	101

For each entry beneath this line, provide reported cell viability.
1. Cc1cc(C2CCCCC2)n(O)c(=O)c1
2. Nc1nc(NCCc2ccc(O)cc2)nc2nc(-c3ccco3)nn12
3. CCCCCCCCCCCCCCCCCCCCCCCCCCCCO
4. CC(C)(C)CC(C)(C)c1cc(Cc2cc(C(C)(C)CC(C)(C)C)cc(-n3nc4ccccc4n3)c2O)c(O)c(-n2nc3ccccc3n2)c1
5. CNC(=N)NCCC[C@H](N)C(=O)O
6. CCNC(=O)/C=C/c1cccc(Br)c1 [cinromide]
7. CSCC[C@H](NC(=O)[C@H](Cc1ccccc1)NC(=O)CNC(=O)CNC(=O)[C@@H](N)Cc1ccc(O)cc1)C(=O)O
8. CC[N+]1(C)CCCC(OC(=O)C(O)(c2ccccc2)c2ccccc2)C1 (configuration not stated) [pipenzolate]

// result
1: 99.9; 2: 97.2; 3: 95.4; 4: 98.6; 5: 98.1; 6: 99.1; 7: 94.7; 8: 102

// query Name the recorded cell viability of the item "CCOC(=O)[C@H]1O[C@@H]1C(=O)N[C@@H](CC(C)C)C(=O)NCCC(C)C" in your answer.
// result 97.6

* * *

test system: Caco-2; experiment: cell viability relative to DMSO; higher = less toxic; conditions: 72 h; 100 nM
readoutKind: cell viability (%)
Give bare numbers, in %.

Look over these answered cases.
molecule	systemUnderTest	cell viability, %
CC(C)Cn1cnc2c(N)nc3ccccc3c21 [imiquimod]	Caco-2	105
O=C(CO)[C@@H](O)[C@@H](O)[C@H](O)CO [tagatose]	Caco-2	103

Please turn your attention to the following entry.
// query Name the recorded cell viability of the item CCn1c(=O)n(C2=C(CO)CN(CC3CCCCCCC3)CC2)c2ccccc21 [trap-101] in your answer.
// result 96.7

* * *

Hi there, I'd appreciate the recorded cell viability for every entry that follows.
system: Vero E6; assay: cell viability relative to DMSO; higher = less toxic; settings: 72 h; 10 nM
One number for each entry, in %.

Look over these answered cases.
compound	cell viability, %
Nc1nc(NCCc2ccc(O)cc2)nc2nc(-c3ccco3)nn12	95.3
CCC(CC)Nc1cc(C)nc(Oc2c(C)cc(C)cc2C)c1C	96.1
CCc1c(O)cc(O)c(C(=O)c2ccc(OCCN3CCOCC3)c(OC)c2)c1CC(=O)N(CCOC)CCOC [KW-2478]	103
Cn1c(=O)c(F)c(Nc2ccc(I)cc2F)c2c(=O)n(C[C@@H](O)CO)cnc21 [TAK-733]	82.9

Please turn your attention to the following entry.
// query Name the recorded cell viability of the item COc1cc(/C=C/C(N)=O)cc(OC)c1OC [cintriamide] in your answer.
// result 97.2

* * *

Hi there, I'd appreciate the recorded cell viability for every entry that follows.
test system: U2OS; assay: cell viability relative to DMSO; higher = less toxic; conditions: 72 h; 1 nM
One number for each entry, in %.

For each entry beneath this line, provide reported cell viability.
1. CCN(CC)CCNC(=O)c1ccccc1I
2. C=CCNC1=C2C[C@@H](C)C[C@H](OC)[C@H](O)[C@@H](C)/C=C(\C)[C@H](OC(N)=O)[C@@H](OC)/C=C\C=C(/C)C(=O)NC(=CC1=O)C2=O
3. COc1cc(N)c(Cl)cc1C(=O)CCC1CCN(CCNS(C)(=O)=O)CC1
4. N#Cc1cc2nc(O)c(O)nc2cc1[N+](=O)[O-]
5. NC(=O)c1cccc(-c2cccc(OC(=O)NC3CCCCC3)c2)c1
6. CC(=O)O[C@@H]1CC[C@@]2(C)[C@@H](CC[C@]3(C)[C@@H]2C(=O)C=C2[C@@H]4[C@@H](C)[C@H](C)CC[C@]4(C)CC[C@]23C)[C@@]1(C)C(=O)O
7. Cc1c(F)cc(C(=O)NC2CC2)cc1-c1c(F)cn2c(C(C)(C)C)nnc2c1F
8. Nc1nc(OCc2cc(Br)cs2)c2[nH]cnc2n1

// result
99.1
101
92.6
97.9
94
101
98.9
101
